Each entry below lists one item and its recorded inhibition value.
biological target: Pepsin A (Sus scrofa); assay: Evaluated for the percentage of inhibition of porcine pepsin at E-5M concentration

Compound	inhibition
O=C(NC(Cc1c[nH]cn1)C(=O)N[C@@H](CC1CCCCC1)[C@@H](O)CSC1CCCCC1)C(Cc1ccccc1)Cc1ccccc1 (stereo partly specified)	0%
COc1ccc(C[C@H](NC(=O)OC(C)(C)C)C(=O)N[C@@H](Cc2c[nH]cn2)C(=O)N[C@@H](CC2CCCCC2)[C@@H](O)CS(=O)(=O)C(C)C)cc1	0%
CC(C)(C)OC(=O)N[C@@H](Cc1ccccc1)C(=O)N[C@@H](Cc1c[nH]cn1)C(=O)N[C@@H](CC1CCCCC1)[C@@H](O)CS(=O)(=O)C1CCCCC1	0%
CC(C)S(=O)(=O)C[C@H](O)[C@H](CC1CCCCC1)NC(=O)C(Cc1c[nH]cn1)NC(=O)[C@@H](Cc1ccccc1)NC(=O)OC(C)(C)C (stereo partly specified)	0%
CC(C)S(=O)(=O)C[C@H](O)[C@H](CC1CCCCC1)NC(=O)[C@H](Cc1ccccc1)NC(=O)[C@H](Cc1ccccc1)NC(=O)OC(C)(C)C	4%
CC(C)S(=O)(=O)C[C@H](O)[C@H](CC1CCCCC1)NC(=O)[C@H](Cc1c[nH]cn1)NC(=O)[C@H](Cc1ccccc1)NC(=O)CC(C)(C)C	0%

----------
target: UniProtKB P00791; experiment: Evaluated for the percentage of inhibition of porcine pepsin at E-5M concentration
Sequence (P00791 60-385 limits assumed): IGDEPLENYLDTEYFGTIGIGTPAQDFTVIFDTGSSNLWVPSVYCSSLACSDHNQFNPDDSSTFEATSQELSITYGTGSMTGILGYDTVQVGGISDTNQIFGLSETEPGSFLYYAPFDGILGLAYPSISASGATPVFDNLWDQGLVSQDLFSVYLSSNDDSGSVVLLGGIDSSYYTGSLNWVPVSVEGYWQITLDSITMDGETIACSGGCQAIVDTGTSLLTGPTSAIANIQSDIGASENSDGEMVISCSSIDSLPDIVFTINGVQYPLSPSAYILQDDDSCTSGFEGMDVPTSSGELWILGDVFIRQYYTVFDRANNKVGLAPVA
Quantity Measured: inhibition (%)

> print(dat)
                                   compound  quantity.measured  unit.of.measure  quantitative.result
1  CC(C)(C)OC(=O)N[C@@H](Cc1ccccc1)C(=O)N[C@@H](Cc1c[nH]cn1)C(=O)N[C@@H](Cc1ccccc1)[C@@H](O)CSC1CCCCC1         inhibition                %                    4
2  CC(C)S(=O)(=O)C[C@H](O)[C@H](CC1CCCCC1)NC(=O)[C@H](Cc1c[nH]cn1)NC(=O)[C@H](Cc1ccccc1)NC(=O)OC(C)(C)C         inhibition                %                    0
3  CC(C)S(=O)(=O)C[C@H](O)[C@H](CC1CCCCC1)NC(=O)[C@@H](NC(=O)[C@H](Cc1ccccc1)NC(=O)OC(C)(C)C)[C@@H](C)OCc1ccccc1         inhibition                %                   18
4  CC(C)S(=O)(=O)C[C@H](O)[C@H](CC1CCCCC1)NC(=O)[C@H](CO)NC(=O)[C@H](Cc1ccccc1)NC(=O)OC(C)(C)C         inhibition                %                    0
5  CC(C)S(=O)(=O)C[C@H](O)[C@H](CC1CCCCC1)NC(=O)[C@H](Cc1c[nH]cn1)NC(=O)[C@@H](NC(=O)OC(C)(C)C)[C@@H](C)OCc1ccccc1         inhibition                %                    0
6  CC(C)S(=O)(=O)C[C@H](O)[C@H](CC1CCCCC1)NC(=O)[C@H](C)NC(=O)[C@H](Cc1ccccc1)NC(=O)OC(C)(C)C         inhibition                %                    0
7  CC(C)S(=O)(=O)C[C@H](O)[C@H](CC1CCCCC1)NC(=O)C(Cc1c[nH]cn1)NC(=O)C(Cc1ccccc1)Cc1ccccc1 (some centres not stated)         inhibition                %                    0

----------
experiment: Percent of compound found in 24 hr urine samples after, intravenous administration; format: ADME; settings: read-out: Activity
Quantity Measured: dose excreted at 24 h

> print(dat)
                        structure.as.smiles  result
1  CC(C)(C)OC(=O)N[C@@H](Cc1ccccc1)C(=O)N[C@@H](Cc1c[nH]cn1)C(=O)N[C@@H](CC1CCCCC1)[C@@H](O)CS(=O)(=O)C1CCCCC1     70%

----------
assay: Percent of compound found in 24 hr urine samples after intraduodenal administration; type: ADME; details: read-out: Activity
Quantity Measured: dose excreted at 24 h

> print(dat)
                        structure.as.smiles  result
1  CC(C)(C)OC(=O)N[C@@H](Cc1ccccc1)C(=O)N[C@@H](Cc1c[nH]cn1)C(=O)N[C@@H](CC1CCCCC1)[C@@H](O)CS(=O)(=O)C1CCCCC1     30%

----------
Molecular target: Renin (Homo sapiens)
Sequence (P00797 whole entry): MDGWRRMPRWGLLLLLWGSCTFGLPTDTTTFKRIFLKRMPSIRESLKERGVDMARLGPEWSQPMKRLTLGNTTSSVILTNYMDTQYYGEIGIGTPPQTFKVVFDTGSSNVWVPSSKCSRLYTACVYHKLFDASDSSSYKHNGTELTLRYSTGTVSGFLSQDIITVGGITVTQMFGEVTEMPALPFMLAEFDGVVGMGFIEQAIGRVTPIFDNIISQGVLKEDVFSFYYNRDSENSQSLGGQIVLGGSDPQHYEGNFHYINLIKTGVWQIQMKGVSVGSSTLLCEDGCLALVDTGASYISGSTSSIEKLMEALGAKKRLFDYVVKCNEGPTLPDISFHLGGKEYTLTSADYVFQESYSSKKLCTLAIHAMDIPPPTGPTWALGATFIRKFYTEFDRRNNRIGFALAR
Each entry below lists one item and its recorded IC50 value.
Quantity Measured: IC50

> print(dat)
                                   molecule  quantity.measured  result
1  CC(C)S(=O)(=O)C[C@H](O)[C@H](CC1CCCCC1)NC(=O)C(Cc1cnc[nH]1)NC(=O)C(Cc1ccccc1)Cc1ccccc1 (stereo partly drawn)               IC50   70 nM
2  CC(=O)NCCCC[C@H](NC(=O)[C@H](Cc1ccccc1)NC(=O)OC(C)(C)C)C(=O)N[C@@H](CC1CCCCC1)[C@@H](O)CS(=O)(=O)C(C)C               IC50  300 nM
3  CC(C)S(=O)(=O)C[C@H](O)[C@H](CC1CCCCC1)NC(=O)[C@H](Cc1c[nH]cn1)NC(=O)[C@@H](N)[C@@H](C)OCc1ccccc1               IC50  300 nM
